Target: canine IL-4RA (construct not given) (canine)
Experiment: SPR, combinatorial Fab-SASA clone
quantity-name: kon (M⁻¹ s⁻¹)
Expressed in M⁻¹ s⁻¹, but write only the number.

[[record]]
binder = "AHF21173 (Fab, V domains shown, not shown: small tags and cut ends) VH: EVQLVESGGDLVKPGGSLRLSCVASGFTFRDYAMTWVRQAPGKGLQWVSLINGSGGKTYYADAVKGRFTISRDNAKNTLYLQMNSLRAEDTAVYYCAVDRKTKTIRPQYYGLWVWGQGTLVTVSS VL: DIVMTQTPLSLSVSPGETASISCRSSQSLTYSIGYNYLDWYLQKPGQSPQGLIYLGHKRASGVPDRFSGSGSGTDFTLRISRVEANDTGVYYCMQGLQSPLSFGQGTKLEIKR"
quantity_name = "kon"
measured_number = 160000


Requested read-out: kon. Entry: AHF21184 (Fab, V domains shown, not shown: small tags and cut ends) VH: EVQLVESGGDLVKPGGSLRLSCVASGFTFRDYAMTWVRQAPGKGLQWVSLISGSGGKTYYADAVKGRFTISRDNAKNTLYLQMNSLRAEDTAVYYCAVDRLTKTIRPQYYGLWHWGQGTLVTVSS VL: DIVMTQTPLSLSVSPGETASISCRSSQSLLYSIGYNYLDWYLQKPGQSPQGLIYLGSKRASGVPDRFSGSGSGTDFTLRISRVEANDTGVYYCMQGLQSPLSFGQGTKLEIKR
287000

Entry AHF21200 (Fab, V domains shown, not shown: small tags and cut ends) VH: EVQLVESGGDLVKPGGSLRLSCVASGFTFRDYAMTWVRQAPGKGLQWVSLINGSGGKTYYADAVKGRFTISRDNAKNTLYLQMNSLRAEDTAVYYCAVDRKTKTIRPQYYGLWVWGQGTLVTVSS VL: DIVMTQTPLSLSVSPGETASISCRSSQSLTYSIGYNYLDWYLQKPGQSPQGLIYLGSKRASGVPDRFSGSGSGTDFTLRISRVEANDTGVYYCMQPLQSPLSFGQGTKLEIKR please
146000
